molecules and their reported TGI
- Test system: OVCAR-5 ovarian
- ASSAY: NCI tumour cell line growth inhibition, 48 h

MOLECULE: CCOC(=O)N1[C@@H]2CCC[C@@H]2C(=O)[C@@H]2CCC[C@@H]21
TGI: > 100 µM
//
MOLECULE: CN1C(=O)C23CCCCC2CC1(c1ccccc1)S3 (stereo unspecified)
TGI: > 100 µM
//
MOLECULE: N#CCCN(CCC#N)c1ccc(C(N=Nc2ccc(Cl)cc2)=Nc2ccc(F)cc2)cc1
TGI: > 100 µM

Would you kindly share the measured TGI for O=C(O)CCSC(=S)Nc1cccc(F)c1 ?
> 100 µM

Given CCOC(=O)c1csc(NC(=O)COc2cccc(/C=C3\CSc4ccccc4C3=O)c2)n1 , state its recorded TGI.
5.42 µM

I'd like to know its TGI. The molecule in question is CCO[C@@H]1OC(=O)[C@@](C)(C(C)=O)[C@@H]1C
> 100 µM

Please give the measured TGI for this molecule: COc1ccc(CNC(=O)[C@H](Cc2ccc(O)cn2)NC(C)=O)cc1
> 100 µM

I have this molecule here, Cc1c(C2Cc3ccccc3N2)c2ccccc2n1C (stereo unspecified) , and I need its recorded TGI.
> 100 µM

Need TGI of CCCCCCCCCCCCCCCC(=O)OC1C(O)C(CO)OC(OC)C1NC(=O)N(CCCl)N=O (stereo unspecified) , thanks.
30.4 µM

Bench note: what TGI did CC1=NN(C(=O)c2ccncc2)C(=O)C1N=Nc1ccc2ccccc2c1 (stereo unspecified) show?
> 100 µM

Consider the molecule shown here: COc1cc(-c2ccc(NC(=O)NC3CC3)c(OC)c2)ccc1NC(=O)NC1CC1 What is its recorded TGI?
> 100 µM

Which TGI value belongs to BrCC(Br)(c1ccccc1)c1ccccc1-c1cc(-c2ccccc2)cc(-c2ccccc2)n1 (stereo unspecified) ?
8.35 µM

I'd like to know its TGI. The molecule in question is Cc1cc(C)n(C(=O)CSc2nnc(SCC(=O)n3nc(C)cc3C)s2)n1
> 100 µM

Given the molecule COCOCC[C@@H]1CC=CC(NC(=O)OCc2ccccc2)C1/C=C/C(=O)CCC1OCCO1 (stereo partly specified) , what is its reported TGI?
> 100 µM

---

- Test system: M14 melanoma
- ASSAY: NCI tumour cell line growth inhibition, 48 h
Documented TGI across a set of compounds
Provide the reading as a plain figure in µM.

COMPOUND: O=C(NNC(=S)Nc1ccccc1)c1ccccn1
READING UNIT: µM
TGI: 12.3

Now let's try a different one.
Given the compound COCOCC[C@@H]1CC=CC(NC(=O)OCc2ccccc2)C1/C=C/C(=O)CCC1OCCO1 (some centres undefined) , what is its reported TGI?
88.4

---

- Test system: KM12 colon
- ASSAY: NCI tumour cell line growth inhibition, 48 h; in the data active means GI50 below about 0.43 µM; inactive means the rest
Where a SMILES comes first, the peptide text is derived from it. [ ]: non-standard residue; d: D form. 2Nal = N[CH](Cc1ccc2ccccc2c1)C(=O)O
Lab note: assign the record to one of y for active, n for inactive

MOLECULE: O=C(Nc1cccc(Cl)c1)c1cc(N=Nc2ccc([N+](=O)[O-])cc2Cl)ccc1O
GROUP LABEL: n
--
MOLECULE: C=C1CCC2C3(C)COC(c4ccc(Cl)cc4)OC3CCC2(C)C1/C=C/C1=CCOC1=O (stereo not given)
GROUP LABEL: n

# outcome recorded in this test, key = CC(C)C(NC(=O)C(CCCCN)NC(=O)C(Cc1c[nH]c2ccccc12)NC(=O)C(Cc1ccc(O)cc1)NC(=O)C(CS)NC(=O)C(N)Cc1ccc2ccccc2c1)C(=O)NC(CS)C(=O)NC(C(N)=O)C(C)O (stereo not given) (H-[2Nal]CYWKVCT-NH2; configuration not given here)
n

Which outcome did this test record for the molecule O=C(Nc1ccc2c(c1)OCO2)C(=O)c1c[nH]c2cc(F)ccc12 ?
y

# lookup: test call for COc1ccc2c(c1)C(=O)c1c-2n(CCCN)c(=O)c2cc(OC)c(OC)cc12
y

---

- Test system: KM12 colon
- ASSAY: NCI tumour cell line growth inhibition, 48 h
VALUE TYPE: TGI

COMPOUND: CC1CCc2c(c(CC3CC(=O)NC(=O)C3)nn2-c2ccccc2)C1 (stereo not given)
TGI: > 100 µM

COMPOUND: CC(=O)Oc1c2oc3cc(O)c(O)cc3c2c(OC(C)=O)c2oc3cc(O)c(O)cc3c12
TGI: 44.4 µM

COMPOUND: NNC(=O)N/N=C1\C(=O)N(c2nccs2)C(=O)C(=O)C1c1nc2ccccc2s1 (stereo not given)
TGI: > 100 µM

Under KM12 colon: TGI value of C=C1CC(CN2CCC(=O)NC2=O)(c2ccccc2)OC1=O (stereo not given) ?
46.8 µM

Record CCOC(=O)NC(=S)c1ccc(O)c2ccccc12 : what is its TGI with KM12 colon?
> 100 µM

Give the reported TGI for Cn1c(=O)oc2cc(Br)ccc21 (system: KM12 colon).
> 100 µM

Request - read-out TGI | tested on KM12 colon | compound Cc1c(C2Cc3ccccc3N2)c2ccccc2n1C (stereo not given)
> 100 µM

Observed TGI on KM12 colon for CCCOC1OC(CS(=O)(=O)O)C(O)C(O)C1O (stereo not given) , please.
> 100 µM

Field: TGI (KM12 colon). Entry: CCC[CH2][Sn]([CH2]CCC)([O]C(=O)c1cc(F)cc(F)c1)[O][Sn]([CH2]CCC)([CH2]CCC)[O]C(=O)c1cc(F)cc(F)c1
12.4 µM

So what TGI did Cc1nc(Nc2ccccc2)sc1C(=O)CC(=O)C(=O)NC12CC3CC(CC(C3)C1)C2 get with KM12 colon?
> 100 µM

---

- Tested on: OVCAR-3 ovarian
- ASSAY: NCI tumour cell line growth inhibition, 48 h
VALUE TYPE: TGI

Worked examples, 3 compounds total:
COMPOUND: COC(=O)C1C(C(=O)OC)C1(Br)CBr (stereo not drawn)
TGI: > 100 µM
--
COMPOUND: Cn1c2c3c(F)c(F)ccc3nc-2cc2ccccc21
TGI: 13.6 µM
--
COMPOUND: O=S(=O)(OI(O)CC(F)(F)F)C(F)(F)F
TGI: > 100 µM

What does the data say about its TGI? Entry: N#Cc1c(-c2ccccc2)c(C#N)c(=O)n(C2OC(CO)C(O)C(O)C2O)c1S (stereo not drawn)
> 100 µM

Suppose we examine the compound CC(=O)ON(C(C)=O)C1C(COC(c2ccccc2)(c2ccccc2)c2ccccc2)OC2OC3(CCCC3)OC21 (stereo not drawn) ; what TGI value has been reported?
> 100 µM

Fill blank: measured TGI of the compound Cc1cc(C)nc(NS(=O)(=O)c2ccc(NC(=O)c3ccc(Cl)c4c(Nc5ccc(S(=O)(=O)N=C(N)N)cc5)c5ccccc5nc34)cc2)n1 is ____.
> 100 µM

Data request, read-out TGI, for O=C(O)CCC(NC(=O)c1ccc(CNc2nc3ccccc3nc2C(=O)O)cc1)C(=O)O (stereo not drawn)
> 100 µM

Query: TGI; subject: N#CCCN(CCC#N)c1ccc(/C=C2\N=C(c3cc([N+](=O)[O-])ccc3Cl)N(NC(=O)CC(=O)Nc3ccccc3Cl)C2=O)cc1
> 100 µM

Could you tell me which TGI is on file for CC(=N)N(C)O ?
> 100 µM

Fill in the blank: the reported TGI of O=C1C(Cl)=C(N2CCN(c3ccccn3)CC2)C(=O)c2ncccc21 is ____.
3.21 µM

Please report the recorded TGI for Nc1nc(N)c(N=Nc2ccc(C(=O)O)c(O)c2)c(N)n1 .
53.8 µM

Form field: reported TGI of OC1CCC[C@@H]1Sc1ccccc1 (stereo partly drawn)
> 100 µM

I'd like to know its TGI. The compound in question is O=C(CN(c1ccc(S(=O)(=O)O)cc1)c1ccc(S(=O)(=O)O)cc1)Nn1cnc2ccc(S(=O)(=O)N(c3ccc(S(=O)(=O)O)cc3)c3ccc(S(=O)(=O)O)cc3)cc2c1=O
> 100 µM

What TGI value was documented for this compound, O=C(Nc1ccc2c(c1)OCO2)C(=O)c1c[nH]c2cc(F)ccc12 ?
19 µM

Given O=c1c(-c2ccc(O)cc2)coc2cc(OC3OC(CO)C(O)C(O)C3O)cc(O)c12 (stereo not drawn) , state its recorded TGI.
> 100 µM

So what's the measured TGI for this one? O=[N+]([O-])c1cccc2nc3ccccc3c(NCCCN3CCCCC3)c12
0.026 µM

Suppose we examine the compound O=C(O)Cn1c2c(c3c(O)cccc31)C(=O)c1ccccc1-2 ; what TGI value has been reported?
> 100 µM

What measured TGI goes with CC(O)CN1c2ccccc2Sc2ccc(Cl)cc21 (stereo not drawn) ?
> 10 µM

Fill blank: measured TGI of the compound N#Cc1cc(NC(=O)c2ccccc2)c(=O)n2c1[nH]c1ccccc12 is ____.
80.7 µM

Entry COCCOCCOCCOc1ccc(C(C#N)N(CCc2ccccc2)C(=O)c2cc(C(=O)N(CCc3ccccc3)C(C#N)c3ccc(OCCOCCOCCOC)cc3)cc(C(=O)N(CCc3ccccc3)C(C#N)c3ccc(OCCOCCOCCOC)cc3)c2)cc1 (stereo not drawn) has what TGI?
> 100 µM

Item O=C1CN(c2ccc(Cl)cc2)C(=O)CN1NCNN1CC(=O)N(c2ccc(Cl)cc2)CC1=O has what recorded TGI?
> 100 µM

Look at this compound and give its reported TGI. CC(=O)NC(CCCCN(Cc1ccccc1)C(=O)N(CCCl)N=O)C(=O)NCc1ccccc1 (stereo not drawn)
> 100 µM

Give the measured TGI of CN(C)CCC1(C2=CCCC2)CC/C(=C\c2ccccc2Cl)C1=O (stereo not drawn) .
28.9 µM

Which TGI is reported for this compound? CCOC(=O)NC(=S)c1ccc(O)c2ccccc12
> 100 µM

Quick one: TGI of CC(C)(C)c1ccc(O)c(CN(Cc2cc(C(C)(C)C)ccc2O)C2CCCCC2)c1 ?
34.9 µM
